All figures here come from PubChem BioAssay AID1963845.

System: 429239-143-T-J1-PDC complex spheroid viability;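 note: luminescence signal used as surrogate measure of viable cells; spheroids exposed to compounds for seven days before readout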
experiment: Anticancer human tumor 429239-143-T-J1-PDC patient-derived small cell lung carcinoma cell line growth inhibition [POLQ]
condition notes: second compound 3.16 µM; first compound 10 µM; active compounds read low
In plain terms, low viability, T/C, meaning strictly below 30%, gives YES, and everything else gives NO.

Here's what some known entries look like.
>  <compound>
CC1COCCN1c1cc(C2(S(C)(=N)=O)CC2)nc(-c2ccnc3[nH]ccc23)n1 (stereo unspecified) + Cc1cccc(N(C)C(=O)C2C(O)CCN2c2nc(C)cc(C(F)(F)F)c2C#N)c1

>  <tested target>
429239-143-T-J1-PDC complex spheroid viability;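 note: luminescence signal used as surrogate measure of viable cells; spheroids exposed to compounds for seven days before readout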

>  <class name>
YES

$$$$
>  <compound>
COc1ccc([C@@H](O)c2cc(-c3ncnc4cc(N5CCOCC5)ccc34)c(F)cc2Cl)nn1 + COC1C(OC(N)=O)C(O)C(Oc2ccc3c(O)c(NC(=O)c4ccc(O)c(CC=C(C)C)c4)c(=O)oc3c2C)OC1(C)C

>  <tested target>
429239-143-T-J1-PDC complex spheroid viability;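 note: luminescence signal used as surrogate measure of viable cells; spheroids exposed to compounds for seven days before readout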

>  <class name>
YES

$$$$
>  <compound>
CC1COCCN1c1cc(C2(O)CC3CCC(C2)O3)c2cnn(-c3ccn[nH]3)c2n1 (stereo unspecified) + Nc1ccc(C#CCN(C(=O)Cc2ncc(C(F)(F)F)cc2C(F)(F)F)c2ccc(F)cc2)nn1

>  <tested target>
429239-143-T-J1-PDC complex spheroid viability;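 note: luminescence signal used as surrogate measure of viable cells; spheroids exposed to compounds for seven days before readout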

>  <class name>
YES

$$$$

Query block: # check: viability, T/C < 30% for COc1cc2cc(C(=O)CCC(=O)O)sc2cc1OC + Cc1cccc(N(C)C(=O)C2C(O)CCN2c2nc(C)cc(C(F)(F)F)c2C#N)c1
Result block: NO

Query block: Then this compound: COc1cc2cc(C(=O)CCC(=O)O)sc2cc1OC + Nc1ccc(C#CCN(C(=O)Cc2ncc(C(F)(F)F)cc2C(F)(F)F)c2ccc(F)cc2)nn1
Result block: NO

Query block: Further, for CCCS(=O)(=O)Nc1ccc(F)c(C(=O)c2c[nH]c3ncc(-c4ccc(Cl)cc4)cc23)c1F + COC1C(OC(N)=O)C(O)C(Oc2ccc3c(O)c(NC(=O)c4ccc(O)c(CC=C(C)C)c4)c(=O)oc3c2C)OC1(C)C ?
Result block: NO

Query block: Next compound up: O=C(Nc1ccc(O)c(NS(=O)(=O)c2ccc(F)cc2)c1)c1ccc(-c2ccccc2)cc1 + Cc1cccc(N(C)C(=O)C2C(O)CCN2c2nc(C)cc(C(F)(F)F)c2C#N)c1
Result block: NO

Query block: Can you handle CNCc1ccc(-c2[nH]c3cc(F)cc4c3c2CCNC4=O)cc1 + Nc1ccc(C#CCN(C(=O)Cc2ncc(C(F)(F)F)cc2C(F)(F)F)c2ccc(F)cc2)nn1 next?
Result block: NO

Query block: Entry to check: CC(C)n1c(=O)n(C)c2cnc3cc(F)c(-c4ccc(OCCCN5CCCCC5)nc4)cc3c21 + Nc1ccc(C#CCN(C(=O)Cc2ncc(C(F)(F)F)cc2C(F)(F)F)c2ccc(F)cc2)nn1
Result block: NO

Query block: Record: CC1COCCN1c1cc(-c2ccnn2C)c2ccnc(-c3ccn[nH]3)c2n1 (stereo unspecified) + Nc1ccc(C#CCN(C(=O)Cc2ncc(C(F)(F)F)cc2C(F)(F)F)c2ccc(F)cc2)nn1
Result block: YES

Query block: Field entry: CCCS(=O)(=O)Nc1ccc(F)c(C(=O)c2c[nH]c3ncc(-c4ccc(Cl)cc4)cc23)c1F + Cc1cccc(N(C)C(=O)C2C(O)CCN2c2nc(C)cc(C(F)(F)F)c2C#N)c1
Result block: NO
